# measurement_target: hCA II (Homo sapiens)
// NB: equality with 40 nM counts as not satisfied; only Ki strictly below is satisfied

{"molecule": "NS(=O)(=O)c1ccc(N2CC[C@@H](NC(=O)Nc3ccc4c(c3)OCCO4)C2)nc1 [15a]", "category": "not satisfied"}
{"molecule": "NS(=O)(=O)c1cccc(NC(=O)N[C@@H]2CCN(c3ccccn3)C2)c1 [42a]", "category": "satisfied"}
{"molecule": "NS(=O)(=O)c1ccc(N2CC[C@H](NC(=O)Nc3ccc(Cl)c(Cl)c3)C2)nc1 [14b]", "category": "not satisfied"}
{"molecule": "NS(=O)(=O)c1ccc(N2CC[C@H](NC(=S)Nc3ccc(C4c5ccc(O)cc5Oc5cc(O)ccc54)c(C(=O)O)c3)C2)nc1 [17b]", "category": "not satisfied"}
{"molecule": "NS(=O)(=O)c1ccc(N2CC[C@H](NC(=O)Nc3ccc(C(F)(F)F)cc3)C2)nc1 [20b]", "category": "satisfied"}
{"molecule": "NS(=O)(=O)c1ccc(N2CC[C@@H](NC(=O)Nc3ccc(Cl)c(Cl)c3)C2)nc1 [14a]", "category": "not satisfied"}
{"molecule": "NS(=O)(=O)c1cccc(NC(=S)N[C@@H]2CCN(c3cccc([N+](=O)[O-])n3)C2)c1 [38a]", "category": "satisfied"}
{"molecule": "NS(=O)(=O)c1ccc(N2CC[C@@H](NC(=S)Nc3ccc(C4c5ccc(O)cc5Oc5cc(O)ccc54)c(C(=O)O)c3)C2)nc1 [17a]", "category": "not satisfied"}
{"molecule": "NS(=O)(=O)c1ccc(N2CC[C@@H](NC(=O)NS(=O)(=O)c3ccccc3)C2)nc1 [24a]", "category": "not satisfied"}

* * *

# measurement_target: hCA IV (Homo sapiens, UniProt P22748)
# Sequence (P22748 19-312): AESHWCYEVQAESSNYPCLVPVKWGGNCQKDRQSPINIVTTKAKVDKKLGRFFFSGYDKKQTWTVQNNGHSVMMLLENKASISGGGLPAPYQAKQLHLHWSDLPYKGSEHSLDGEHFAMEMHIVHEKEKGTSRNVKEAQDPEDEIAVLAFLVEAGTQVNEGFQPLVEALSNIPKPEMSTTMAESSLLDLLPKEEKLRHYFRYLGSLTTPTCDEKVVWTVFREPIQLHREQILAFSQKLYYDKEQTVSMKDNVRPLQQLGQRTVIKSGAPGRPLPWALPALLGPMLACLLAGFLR
metric_name: log10 of Ki (log10 of the value in nM)

{"compound": "NS(=O)(=O)c1ccc(N2CC[C@H](NC(=O)Nc3ccc(Cl)c(Cl)c3)C2)nc1 [14b]", "log10 of Ki": 3.40}
{"compound": "NS(=O)(=O)c1ccc(N2CC[C@H](NC(=O)Nc3c(F)cc(F)cc3Br)C2)nc1 [22b]", "log10 of Ki": 3.91}
{"compound": "NS(=O)(=O)c1ccc(N2CC[C@H](NC(=O)Nc3ccccc3Cl)C2)nc1 [12b]", "log10 of Ki": 3.31}
{"compound": "NS(=O)(=O)c1ccc(N2CC[C@@H](NC(=S)Nc3ccccc3F)C2)nc1 [21a]", "log10 of Ki": 3.49}
{"compound": "NS(=O)(=O)c1ccc(NC(=S)N[C@@H]2CCN(c3ccc(C(F)(F)F)cn3)C2)cc1 [39a]", "log10 of Ki": 3.70}
{"compound": "NS(=O)(=O)c1cccc(NC(=S)N[C@@H]2CCN(c3cccc([N+](=O)[O-])n3)C2)c1 [38a]", "log10 of Ki": 2.38}

* * *

# measurement_target: hCA VII (Homo sapiens, UniProt P43166)
# Sequence (P43166 whole entry): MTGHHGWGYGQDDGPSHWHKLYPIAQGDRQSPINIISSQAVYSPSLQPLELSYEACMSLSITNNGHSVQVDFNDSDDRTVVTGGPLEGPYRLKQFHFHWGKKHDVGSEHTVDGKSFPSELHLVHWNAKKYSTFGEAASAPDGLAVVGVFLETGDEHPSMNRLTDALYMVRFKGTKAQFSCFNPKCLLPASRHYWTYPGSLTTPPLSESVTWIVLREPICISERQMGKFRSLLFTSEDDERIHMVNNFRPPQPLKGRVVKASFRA
pKi: −log10 of the molar value.
Listed here are molecules together with their documented pKi.

{"molecule": "NS(=O)(=O)c1cccc(NC(=O)N[C@@H]2CCN(c3ccccn3)C2)c1 [42a]", "pKi": 8.09}
{"molecule": "NS(=O)(=O)c1cccc(NC(=S)N[C@@H]2CCN(c3cccc([N+](=O)[O-])n3)C2)c1 [38a]", "pKi": 7.08}
{"molecule": "NS(=O)(=O)c1cccc(NC(=S)N[C@@H]2CCN(c3ccccn3)C2)c1 [36a]", "pKi": 7.26}
{"molecule": "NS(=O)(=O)c1ccc(N2CC[C@H](NC(=O)Nc3ccc(Oc4ccccc4)cc3)C2)nc1 [13b]", "pKi": 7.28}
{"molecule": "NS(=O)(=O)c1ccc(N2CC[C@H](NC(=O)Nc3ccccc3Cl)C2)nc1 [12b]", "pKi": 9.05}
{"molecule": "NS(=O)(=O)c1ccc(NC(=O)N[C@@H]2CCN(c3ccccn3)C2)cc1 [41a]", "pKi": 8.02}
{"molecule": "NS(=O)(=O)c1ccc(N2CC[C@H](NC(=O)Nc3ccc([N+](=O)[O-])cc3)C2)nc1 [19b]", "pKi": 8.09}
{"molecule": "NS(=O)(=O)c1cccc(NC(=S)N[C@H]2CCN(c3cccc([N+](=O)[O-])n3)C2)c1 [38b]", "pKi": 7.81}
{"molecule": "NS(=O)(=O)c1cccc(NC(=O)N[C@@H]2CCN(c3cccc([N+](=O)[O-])n3)C2)c1 [44a]", "pKi": 7.13}
{"molecule": "NS(=O)(=O)c1ccc(N2CC[C@@H](NC(=S)Nc3ccc(C4c5ccc(O)cc5Oc5cc(O)ccc54)c(C(=O)O)c3)C2)nc1 [17a]", "pKi": 8.11}
{"molecule": "NS(=O)(=O)c1ccc(N2CC[C@@H](NC(=O)Nc3ccccc3Cl)C2)nc1 [12a]", "pKi": 7.13}
{"molecule": "NS(=O)(=O)c1cccc(NC(=S)N[C@@H]2CCN(c3ccc(C(F)(F)F)cn3)C2)c1 [40a]", "pKi": 7.26}
{"molecule": "NS(=O)(=O)c1ccc(N2CC[C@H](NC(=O)Nc3ccc(Cl)c(Cl)c3)C2)nc1 [14b]", "pKi": 7.92}

Values compiled from paper PMC9940855.
